Target Under Test: Epidermal growth factor receptor (Homo sapiens, UniProt P00533, C797S/L858R/T790M)
Sequence (P00533 25-1210 T790M/C797S/L858R limits assumed): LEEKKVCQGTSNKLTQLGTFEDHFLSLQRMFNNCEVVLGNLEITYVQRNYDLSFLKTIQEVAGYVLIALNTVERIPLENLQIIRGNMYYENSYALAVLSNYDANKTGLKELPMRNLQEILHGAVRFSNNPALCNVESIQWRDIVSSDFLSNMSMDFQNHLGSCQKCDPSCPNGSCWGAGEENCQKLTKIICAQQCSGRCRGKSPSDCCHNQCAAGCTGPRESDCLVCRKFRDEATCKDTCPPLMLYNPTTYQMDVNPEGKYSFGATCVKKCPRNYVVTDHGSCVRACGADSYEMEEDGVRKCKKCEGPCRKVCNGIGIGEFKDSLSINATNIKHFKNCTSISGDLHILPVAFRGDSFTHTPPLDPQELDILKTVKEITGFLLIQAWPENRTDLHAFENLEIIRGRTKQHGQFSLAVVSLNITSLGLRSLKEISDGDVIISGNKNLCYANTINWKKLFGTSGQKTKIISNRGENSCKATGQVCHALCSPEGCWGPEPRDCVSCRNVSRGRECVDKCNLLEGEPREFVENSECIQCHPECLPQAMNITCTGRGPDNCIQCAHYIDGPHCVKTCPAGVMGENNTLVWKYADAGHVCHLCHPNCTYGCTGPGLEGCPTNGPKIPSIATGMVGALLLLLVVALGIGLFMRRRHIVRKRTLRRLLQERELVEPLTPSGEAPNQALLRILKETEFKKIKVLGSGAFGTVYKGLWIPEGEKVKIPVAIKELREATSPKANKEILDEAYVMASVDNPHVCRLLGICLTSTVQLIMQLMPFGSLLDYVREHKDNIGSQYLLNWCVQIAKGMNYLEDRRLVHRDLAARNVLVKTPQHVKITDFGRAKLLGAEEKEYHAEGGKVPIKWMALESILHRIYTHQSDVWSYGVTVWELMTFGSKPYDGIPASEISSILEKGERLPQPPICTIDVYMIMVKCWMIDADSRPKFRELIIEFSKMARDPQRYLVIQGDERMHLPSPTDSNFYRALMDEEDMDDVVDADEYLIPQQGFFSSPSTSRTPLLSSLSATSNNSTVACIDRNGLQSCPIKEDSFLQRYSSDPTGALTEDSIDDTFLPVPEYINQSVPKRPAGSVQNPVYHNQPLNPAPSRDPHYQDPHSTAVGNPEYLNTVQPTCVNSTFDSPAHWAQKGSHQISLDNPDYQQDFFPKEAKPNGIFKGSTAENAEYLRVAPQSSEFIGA
Protocol: Inhibition of wild type EGFR L858R/T790M/C797S mutant (unknown origin) using Poly (Glu, Tyr) as substrate after 40 mins by kinase-Glo luminescence assay
pIC50: −log10 of the molar value.
Catalogue of pIC50 readings, one per entry.

| Smiles Input | Target Under Test | pIC50 |
| --- | --- | --- |
| CN(C)C1CCN(c2ccc(Nc3cc4c(N5CCOCC5)nc(Nc5ccc(F)cc5F)nc4cn3)nc2)CC1 | Epidermal growth factor receptor (Homo sapiens, UniProt P00533, C797S/L858R/T790M) | 7.27 |
| CN(C)CCN(C)c1nc(Nc2ccc(F)cc2)nc2cnc(Nc3ccc(N4CCC(N(C)C)CC4)cn3)cc12 | Epidermal growth factor receptor (Homo sapiens, UniProt P00533, C797S/L858R/T790M) | 7.61 |
| CN1CCN(c2nc(Nc3ccc(F)cc3)nc3cnc(Nc4ccc(N5CCC(N(C)C)CC5)cn4)cc23)CC1 | Epidermal growth factor receptor (Homo sapiens, UniProt P00533, C797S/L858R/T790M) | 7.46 |
| CN(C)C1CCN(c2ccc(Nc3cc4c(N5CCC(CO)CC5)nc(Nc5ccccc5)nc4cn3)nc2)CC1 | Epidermal growth factor receptor (Homo sapiens, UniProt P00533, C797S/L858R/T790M) | 7.08 |
| CN(C)C1CCN(c2ccc(Nc3cc4c(N5CCC(CO)CC5)nc(Nc5ccc(F)cc5)nc4cn3)nc2)CC1 | Epidermal growth factor receptor (Homo sapiens, UniProt P00533, C797S/L858R/T790M) | 8.14 |
| CN(CCO)c1nc(Nc2ccccc2)nc2cnc(Nc3ccc(N4CCC(N(C)C)CC4)cn3)cc12 | Epidermal growth factor receptor (Homo sapiens, UniProt P00533, C797S/L858R/T790M) | 7.29 |
| CN(CCCO)c1nc(Nc2ccc(F)cc2)nc2cnc(Nc3ccc(N4CCC(N(C)C)CC4)cn3)cc12 | Epidermal growth factor receptor (Homo sapiens, UniProt P00533, C797S/L858R/T790M) | 7.28 |
| CN(C)C1CCN(c2ccc(Nc3cc4c(N5CCOCC5)nc(Nc5ccc(F)cc5)nc4cn3)nc2)CC1 | Epidermal growth factor receptor (Homo sapiens, UniProt P00533, C797S/L858R/T790M) | 7.55 |
| CN(C)C1CCN(c2ccc(Nc3cc4c(N5CCOCC5)nc(Nc5ccccc5)nc4cn3)nc2)CC1 | Epidermal growth factor receptor (Homo sapiens, UniProt P00533, C797S/L858R/T790M) | 7.27 |
| CN(C)C1CCN(c2ccc(Nc3cc4c(N5CCCCC5)nc(Nc5ccccc5)nc4cn3)nc2)CC1 | Epidermal growth factor receptor (Homo sapiens, UniProt P00533, C797S/L858R/T790M) | 7.82 |
| CN(C)C1CCN(c2ccc(Nc3cc4c(N5CCCC5)nc(Nc5ccccc5)nc4cn3)nc2)CC1 | Epidermal growth factor receptor (Homo sapiens, UniProt P00533, C797S/L858R/T790M) | 7.21 |
| CN1CCN(c2ccc(Nc3cc4c(N5CCCCC5)nc(Nc5ccccc5)nc4cn3)nc2)CC1 | Epidermal growth factor receptor (Homo sapiens, UniProt P00533, C797S/L858R/T790M) | 7.64 |

----------
Listed next: entries and their corresponding IC50.
Target Under Test: Epidermal growth factor receptor (Homo sapiens, UniProt P00533, L858R)
Sequence (P00533 25-1210 L858R limits assumed): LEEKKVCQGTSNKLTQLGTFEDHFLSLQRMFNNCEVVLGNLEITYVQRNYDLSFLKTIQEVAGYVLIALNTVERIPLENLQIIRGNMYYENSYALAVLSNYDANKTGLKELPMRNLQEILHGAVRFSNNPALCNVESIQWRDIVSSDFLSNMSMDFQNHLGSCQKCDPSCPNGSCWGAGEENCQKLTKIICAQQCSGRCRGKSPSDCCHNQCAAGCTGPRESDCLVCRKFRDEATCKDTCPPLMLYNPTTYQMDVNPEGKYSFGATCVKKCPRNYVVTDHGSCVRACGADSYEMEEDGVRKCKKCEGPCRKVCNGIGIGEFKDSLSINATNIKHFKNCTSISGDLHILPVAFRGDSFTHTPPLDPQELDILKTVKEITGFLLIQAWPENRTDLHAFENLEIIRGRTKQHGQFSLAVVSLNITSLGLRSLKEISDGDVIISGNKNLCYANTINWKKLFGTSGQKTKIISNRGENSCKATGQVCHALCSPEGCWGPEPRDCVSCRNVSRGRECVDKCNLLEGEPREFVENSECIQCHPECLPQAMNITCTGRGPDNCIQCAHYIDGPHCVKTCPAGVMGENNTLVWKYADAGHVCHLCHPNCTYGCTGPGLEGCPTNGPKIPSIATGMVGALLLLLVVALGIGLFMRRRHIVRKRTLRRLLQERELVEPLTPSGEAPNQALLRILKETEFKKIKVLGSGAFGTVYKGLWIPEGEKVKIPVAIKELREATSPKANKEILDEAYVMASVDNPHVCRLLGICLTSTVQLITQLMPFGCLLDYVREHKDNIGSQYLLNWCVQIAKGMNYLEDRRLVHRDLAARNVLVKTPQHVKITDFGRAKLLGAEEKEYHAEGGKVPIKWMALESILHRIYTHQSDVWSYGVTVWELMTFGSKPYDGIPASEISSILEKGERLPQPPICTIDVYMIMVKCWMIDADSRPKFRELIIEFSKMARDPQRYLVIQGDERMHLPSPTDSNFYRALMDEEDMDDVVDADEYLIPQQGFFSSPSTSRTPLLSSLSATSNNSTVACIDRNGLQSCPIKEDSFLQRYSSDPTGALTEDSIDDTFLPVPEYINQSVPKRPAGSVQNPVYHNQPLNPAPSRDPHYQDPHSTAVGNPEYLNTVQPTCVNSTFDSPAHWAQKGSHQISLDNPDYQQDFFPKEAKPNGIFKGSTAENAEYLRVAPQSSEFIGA
Protocol: Inhibition of wild type EGFR L858R mutant (unknown origin) using Poly (Glu, Tyr) as substrate after 40 mins by kinase-Glo luminescence assay

| Smiles Input | IC50 [nM] |
| --- | --- |
| CN(C)C1CCN(c2ccc(Nc3cc4c(N5CCOCC5)nc(Nc5ccc(F)cc5)nc4cn3)nc2)CC1 | 2.5 |
| CN(C)C1CCN(c2ccc(Nc3cc4c(N5CCCC5)nc(Nc5ccccc5)nc4cn3)nc2)CC1 | 1.6 |
| CN(C)C1CCN(c2ccc(Nc3cc4c(N5CCC(CO)CC5)nc(Nc5ccccc5)nc4cn3)nc2)CC1 | 3.2 |
| CN(C)C1CCN(c2ccc(Nc3cc4c(N5CCOCC5)nc(Nc5ccccc5)nc4cn3)nc2)CC1 | 3.9 |
| CN(C)C1CCN(c2ccc(Nc3cc4c(N5CCCCC5)nc(Nc5ccccc5)nc4cn3)nc2)CC1 | 4.9 |
| CN(C)C1CCN(c2ccc(Nc3cc4c(N5CCOCC5)nc(Nc5ccc(F)cc5F)nc4cn3)nc2)CC1 | 2.1 |
| CN1CCN(c2ccc(Nc3cc4c(N5CCCC5)nc(Nc5ccccc5)nc4cn3)nc2)CC1 | 2.3 |
| CN1CCN(c2ccc(Nc3cc4c(N5CCCCC5)nc(Nc5ccccc5)nc4cn3)nc2)CC1 | 1.1 |
| CN(C)C1CCN(c2ccc(Nc3cc4c(N5CCC(CO)CC5)nc(Nc5ccc(F)cc5)nc4cn3)nc2)CC1 | 1.1 |

----------
Target Under Test: Epidermal growth factor receptor (Homo sapiens, UniProt P00533, L858R/T790M)
Sequence (P00533 25-1210 T790M/L858R limits assumed): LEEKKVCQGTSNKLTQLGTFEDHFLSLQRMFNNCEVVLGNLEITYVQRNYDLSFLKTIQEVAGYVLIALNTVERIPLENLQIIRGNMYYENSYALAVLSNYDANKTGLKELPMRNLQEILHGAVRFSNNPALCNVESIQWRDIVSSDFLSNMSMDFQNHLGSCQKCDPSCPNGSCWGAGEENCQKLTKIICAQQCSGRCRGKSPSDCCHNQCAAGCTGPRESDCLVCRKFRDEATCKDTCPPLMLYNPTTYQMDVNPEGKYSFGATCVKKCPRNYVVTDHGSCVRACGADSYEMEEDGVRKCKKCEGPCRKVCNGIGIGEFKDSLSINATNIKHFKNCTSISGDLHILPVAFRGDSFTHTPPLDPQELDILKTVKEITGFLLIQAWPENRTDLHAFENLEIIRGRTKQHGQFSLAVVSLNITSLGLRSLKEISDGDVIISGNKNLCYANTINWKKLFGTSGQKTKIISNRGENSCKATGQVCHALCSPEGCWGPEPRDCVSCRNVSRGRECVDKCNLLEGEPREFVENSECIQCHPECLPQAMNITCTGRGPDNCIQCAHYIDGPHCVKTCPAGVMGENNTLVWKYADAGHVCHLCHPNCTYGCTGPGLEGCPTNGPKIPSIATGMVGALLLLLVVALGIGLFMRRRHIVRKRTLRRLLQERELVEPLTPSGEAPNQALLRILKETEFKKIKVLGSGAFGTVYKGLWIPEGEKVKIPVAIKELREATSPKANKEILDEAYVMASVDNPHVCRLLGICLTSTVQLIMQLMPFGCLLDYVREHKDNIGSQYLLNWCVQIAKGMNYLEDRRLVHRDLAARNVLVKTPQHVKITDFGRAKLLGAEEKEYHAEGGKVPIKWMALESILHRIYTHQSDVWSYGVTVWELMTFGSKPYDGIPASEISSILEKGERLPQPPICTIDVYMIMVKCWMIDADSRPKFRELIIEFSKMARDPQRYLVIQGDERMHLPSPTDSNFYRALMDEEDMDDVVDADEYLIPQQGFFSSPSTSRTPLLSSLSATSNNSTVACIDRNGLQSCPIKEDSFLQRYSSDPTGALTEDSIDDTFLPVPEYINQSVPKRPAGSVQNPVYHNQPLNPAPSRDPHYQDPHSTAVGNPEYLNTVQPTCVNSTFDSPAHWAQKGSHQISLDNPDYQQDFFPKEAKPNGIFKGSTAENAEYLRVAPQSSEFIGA
Protocol: Inhibition of wild type EGFR L858R/T790M double mutant (unknown origin) using Poly (Glu, Tyr) as substrate after 40 mins by kinase-Glo luminescence assay
// map IC50 onto a label; ranges group A = under 30 nM, group B = from 30 nM up to 60 nM, group C = 60 nM and over

| Smiles Input | Group |
| --- | --- |
| CN(C)C1CCN(c2ccc(Nc3cc4c(N5CCOCC5)nc(Nc5ccc(F)cc5)nc4cn3)nc2)CC1 | group A |
| CN(C)C1CCN(c2ccc(Nc3cc4c(N5CCC(CO)CC5)nc(Nc5ccc(F)cc5)nc4cn3)nc2)CC1 | group B |
| CN(C)C1CCN(c2ccc(Nc3cc4c(N5CCC(CO)CC5)nc(Nc5ccccc5)nc4cn3)nc2)CC1 | group B |
| CN(C)C1CCN(c2ccc(Nc3cc4c(N5CCCCC5)nc(Nc5ccccc5)nc4cn3)nc2)CC1 | group A |
| CN1CCN(c2ccc(Nc3cc4c(N5CCCC5)nc(Nc5ccccc5)nc4cn3)nc2)CC1 | group C |
| CN1CCN(c2ccc(Nc3cc4c(N5CCCCC5)nc(Nc5ccccc5)nc4cn3)nc2)CC1 | group B |
| CN(C)C1CCN(c2ccc(Nc3cc4c(N5CCOCC5)nc(Nc5ccccc5)nc4cn3)nc2)CC1 | group B |
| CN(C)C1CCN(c2ccc(Nc3cc4c(N5CCCC5)nc(Nc5ccccc5)nc4cn3)nc2)CC1 | group C |

----------
The following molecules each carry a recorded IC50 for Epidermal growth factor receptor (Homo sapiens).
Measurement Kind: IC50

| Smiles Input | Measurement Kind | Readout Value |
| --- | --- | --- |
| CN(C)C1CCN(c2ccc(Nc3cc4c(N5CCCCC5)nc(Nc5ccccc5)nc4cn3)nc2)CC1 | IC50 | 0.9 nM |
| CN(C)C1CCN(c2ccc(Nc3cc4c(N5CCC(CO)CC5)nc(Nc5ccc(F)cc5)nc4cn3)nc2)CC1 | IC50 | 10.4 nM |
| CN(C)C1CCN(c2ccc(Nc3cc4c(N5CCOCC5)nc(Nc5ccc(F)cc5F)nc4cn3)nc2)CC1 | IC50 | 0.9 nM |
| CN1CCN(c2ccc(Nc3cc4c(N5CCCCC5)nc(Nc5ccccc5)nc4cn3)nc2)CC1 | IC50 | 1.1 nM |
| CN(C)C1CCN(c2ccc(Nc3cc4c(N5CCOCC5)nc(Nc5ccc(F)cc5)nc4cn3)nc2)CC1 | IC50 | 1.5 nM |

Hey, just so you know, these numbers are from ChEMBL document CHEMBL4196024.
